assay: Safety and tolerability study, single-dose pharmacokinetics (Parts A, B, C); type: in vivo, human; conditions: male, human, plasma, oral, 1 mg, Part A, healthy young men, 1 mg single dose, median (min, max); read-out: tmax

{"chemical structure": "Cc1ccc(C(=O)Nc2nc(-c3ccco3)c(C(=O)C3CCOCC3)s2)cn1", "Tmax (h)": 1.25}

----------
biological target: A2A receptor (Callithrix jacchus, UniProt A0A8I3X4X6); test: Adenosine receptor binding affinity, marmoset A2A
Sequence (A0A8I3X4X6 1-410): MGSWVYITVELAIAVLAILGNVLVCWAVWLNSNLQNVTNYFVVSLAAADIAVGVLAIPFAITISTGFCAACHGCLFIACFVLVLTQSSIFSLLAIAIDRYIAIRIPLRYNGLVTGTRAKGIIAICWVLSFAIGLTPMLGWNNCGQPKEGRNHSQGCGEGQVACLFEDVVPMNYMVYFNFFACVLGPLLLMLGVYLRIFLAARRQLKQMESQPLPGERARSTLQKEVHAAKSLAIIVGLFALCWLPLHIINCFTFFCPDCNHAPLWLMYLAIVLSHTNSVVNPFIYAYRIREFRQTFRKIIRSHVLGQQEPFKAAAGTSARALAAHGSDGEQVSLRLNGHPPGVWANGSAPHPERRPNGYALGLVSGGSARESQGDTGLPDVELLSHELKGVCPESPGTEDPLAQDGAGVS

{"chemical structure": "Cc1ccc(C(=O)Nc2nc(-c3ccco3)c(C(=O)C3CCOCC3)s2)cn1", "Ki / nM": 0.113}

----------
assay: Safety and tolerability study, single-dose pharmacokinetics (Parts A, B, C); format: in vivo, human; conditions: both sexes, human, plasma, oral, Parts A and B, each dose, post-dose; read-out: median tmax

{"chemical structure": "Cc1ccc(C(=O)Nc2nc(-c3ccco3)c(C(=O)C3CCOCC3)s2)cn1", "Tmax": "0.75 to 1.75 h"}

----------
assay: Safety and tolerability study, single-dose pharmacokinetics (Parts A, B, C); format: in vivo, human; conditions: male, human, plasma, oral, 10 mg, Part A, healthy young men, 10 mg single dose, median (min, max); read-out: tmax

{"chemical structure": "Cc1ccc(C(=O)Nc2nc(-c3ccco3)c(C(=O)C3CCOCC3)s2)cn1", "Tmax": "1 h"}

----------
experiment: Safety and tolerability study, single-dose pharmacokinetics (Parts A, B, C); type: in vivo, human; details: female, human, plasma, oral, 5 mg, Part B, healthy elderly women, arithmetic mean
endpoint label: AUC(0-inf) (ng·h/mL)

{"chemical structure": "Cc1ccc(C(=O)Nc2nc(-c3ccco3)c(C(=O)C3CCOCC3)s2)cn1", "value measured": 9550}

----------
experiment: Safety and tolerability study, single-dose pharmacokinetics (Parts A, B, C); format: in vivo, human; conditions: both sexes, human, plasma, oral, 10 mg, Part B, healthy elderly overall, 10 mg, median; read-out: tmax

{"chemical structure": "Cc1ccc(C(=O)Nc2nc(-c3ccco3)c(C(=O)C3CCOCC3)s2)cn1", "Tmax / min": 45}

----------
molecular target: A2A receptor (Homo sapiens, UniProt P29274)
Sequence (P29274 whole entry): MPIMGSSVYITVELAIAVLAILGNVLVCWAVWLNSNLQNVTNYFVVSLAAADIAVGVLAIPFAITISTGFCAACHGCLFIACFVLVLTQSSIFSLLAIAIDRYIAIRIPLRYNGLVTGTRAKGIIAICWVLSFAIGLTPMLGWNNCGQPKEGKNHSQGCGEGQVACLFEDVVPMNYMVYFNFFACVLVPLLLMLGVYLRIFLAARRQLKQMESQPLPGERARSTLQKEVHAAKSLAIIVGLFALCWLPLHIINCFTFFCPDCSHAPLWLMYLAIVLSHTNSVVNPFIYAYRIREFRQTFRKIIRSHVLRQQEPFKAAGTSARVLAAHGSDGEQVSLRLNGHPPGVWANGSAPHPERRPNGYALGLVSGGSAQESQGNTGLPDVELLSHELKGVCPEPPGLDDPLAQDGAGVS
pKi: −log10 of the molar value.

{"chemical structure": "Cc1ccc(C(=O)Nc2nc(-c3ccco3)c(C(=O)C3CCOCC3)s2)cn1", "pKi": 9.93}

----------
test: Safety and tolerability study, single-dose pharmacokinetics (Parts A, B, C); type: in vivo, human; settings: both sexes, human, plasma, oral, 5 mg, Part B, healthy elderly overall, arithmetic mean

{"chemical structure": "Cc1ccc(C(=O)Nc2nc(-c3ccco3)c(C(=O)C3CCOCC3)s2)cn1", "Cmax / ng/mL": 388}

----------
target: A1 receptor (Callithrix jacchus)
Sequence (U3EV00 1-326): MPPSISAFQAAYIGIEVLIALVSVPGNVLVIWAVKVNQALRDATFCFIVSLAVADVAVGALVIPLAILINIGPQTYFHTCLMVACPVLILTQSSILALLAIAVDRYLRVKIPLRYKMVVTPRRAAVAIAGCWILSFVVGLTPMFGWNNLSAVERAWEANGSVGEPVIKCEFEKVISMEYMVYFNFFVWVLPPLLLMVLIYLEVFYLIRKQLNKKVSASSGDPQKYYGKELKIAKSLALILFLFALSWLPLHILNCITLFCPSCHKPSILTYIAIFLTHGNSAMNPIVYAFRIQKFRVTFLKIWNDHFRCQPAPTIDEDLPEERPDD
endpoint label: Ki (nM)

{"chemical structure": "Cc1ccc(C(=O)Nc2nc(-c3ccco3)c(C(=O)C3CCOCC3)s2)cn1", "units text": "nM", "value measured": 305}

----------
assay: Safety and tolerability study, single-dose pharmacokinetics (Parts A, B, C); assay type: in vivo, human; conditions: male, human, plasma, oral, 5 mg, Part B, healthy elderly men, arithmetic mean

{"chemical structure": "Cc1ccc(C(=O)Nc2nc(-c3ccco3)c(C(=O)C3CCOCC3)s2)cn1", "Cmax": "356 ng/mL"}

----------
Molecular target: A3 (Homo sapiens, UniProt P0DMS8)
Sequence (P0DMS8 1-318): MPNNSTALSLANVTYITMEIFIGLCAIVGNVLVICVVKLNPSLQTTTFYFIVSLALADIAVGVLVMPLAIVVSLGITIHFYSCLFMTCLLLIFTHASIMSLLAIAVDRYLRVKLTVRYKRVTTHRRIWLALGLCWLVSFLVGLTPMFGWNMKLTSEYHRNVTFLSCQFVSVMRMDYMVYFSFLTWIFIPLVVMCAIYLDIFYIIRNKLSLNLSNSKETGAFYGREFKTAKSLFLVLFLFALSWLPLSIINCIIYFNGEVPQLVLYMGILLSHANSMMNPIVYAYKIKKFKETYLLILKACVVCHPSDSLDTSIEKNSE

{"compound": "Cc1ccc(C(=O)Nc2nc(-c3ccco3)c(C(=O)C3CCOCC3)s2)cn1 [Compound 504]", "Ki (nM)": 428}

----------
test: Safety and tolerability study, single-dose pharmacokinetics (Parts A, B, C); format: in vivo, human; conditions: male, human, plasma, oral, 10 mg, Part A, healthy young men, 10 mg single dose, mean (CV %); read-out: t1/2 (converted)
endpoint label: half-life

{"chemical structure": "Cc1ccc(C(=O)Nc2nc(-c3ccco3)c(C(=O)C3CCOCC3)s2)cn1", "endpoint label": "half-life", "value measured": "19.3 h"}

----------
biological target: A2A receptor (Rattus norvegicus)
Sequence (P30543 whole entry): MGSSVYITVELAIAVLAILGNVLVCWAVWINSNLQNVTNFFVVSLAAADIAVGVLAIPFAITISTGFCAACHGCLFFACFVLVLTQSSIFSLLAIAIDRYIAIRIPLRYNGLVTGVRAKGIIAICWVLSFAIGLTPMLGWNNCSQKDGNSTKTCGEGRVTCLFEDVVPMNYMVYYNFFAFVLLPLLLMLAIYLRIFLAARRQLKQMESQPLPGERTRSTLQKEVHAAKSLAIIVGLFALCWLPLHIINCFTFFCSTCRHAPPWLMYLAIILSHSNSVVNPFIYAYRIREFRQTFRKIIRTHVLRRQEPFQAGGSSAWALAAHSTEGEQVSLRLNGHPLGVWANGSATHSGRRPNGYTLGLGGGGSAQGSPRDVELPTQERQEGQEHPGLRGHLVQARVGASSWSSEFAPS
pKi: −log10 of the molar value.
endpoint label: pKi

{"compound": "Cc1ccc(C(=O)Nc2nc(-c3ccco3)c(C(=O)C3CCOCC3)s2)cn1 [Compound 504]", "value measured": 10.00}

----------
experiment: Safety and tolerability study, single-dose pharmacokinetics (Parts A, B, C); assay type: in vivo, human; conditions: both sexes, human, plasma, oral, 10 mg, Part B, healthy elderly overall, 10 mg, arithmetic mean; read-out: Vz/F

{"chemical structure": "Cc1ccc(C(=O)Nc2nc(-c3ccco3)c(C(=O)C3CCOCC3)s2)cn1", "Vd/F [L]": 20.6}

----------
test: Safety and tolerability study, single-dose pharmacokinetics (Parts A, B, C); assay type: in vivo, human; conditions: male, human, plasma, oral, 10 mg, Part A, healthy young men, 10 mg single dose, mean (CV %)
endpoint label: Cmax (ng/mL)

{"chemical structure": "Cc1ccc(C(=O)Nc2nc(-c3ccco3)c(C(=O)C3CCOCC3)s2)cn1", "endpoint label": "Cmax", "value measured": 787}

----------
assay: Safety and tolerability study, single-dose pharmacokinetics (Parts A, B, C); type: in vivo, human; settings: female, human, plasma, oral, 10 mg, Part B, healthy elderly women, 10 mg, arithmetic mean; read-out: t1/2 (converted)

{"chemical structure": "Cc1ccc(C(=O)Nc2nc(-c3ccco3)c(C(=O)C3CCOCC3)s2)cn1", "half-life / h": 18.8}

----------
experiment: Safety and tolerability study, single-dose pharmacokinetics (Parts A, B, C); format: in vivo, human; details: both sexes, human, plasma, oral, 5 mg, Part B, healthy elderly overall, arithmetic mean
endpoint label: AUC(0-inf) (ng·h/mL)

{"chemical structure": "Cc1ccc(C(=O)Nc2nc(-c3ccco3)c(C(=O)C3CCOCC3)s2)cn1", "value measured": 9580}

----------
test: Safety and tolerability study, single-dose pharmacokinetics (Parts A, B, C); format: in vivo, human; conditions: male, human, plasma, oral, 10 mg, Part A, healthy young men, 10 mg single dose, mean (CV %)
endpoint label: AUC(0-inf) (ng·h/mL)

{"chemical structure": "Cc1ccc(C(=O)Nc2nc(-c3ccco3)c(C(=O)C3CCOCC3)s2)cn1", "value measured": 18100}

----------
experiment: Safety and tolerability study, single-dose pharmacokinetics (Parts A, B, C); type: in vivo, human; conditions: both sexes, human, plasma, oral, 5 mg, Part C, elderly men and women, 5 mg, Fasting (N = 24); read-out: t1/2 (converted)

{"compound": "Cc1ccc(C(=O)Nc2nc(-c3ccco3)c(C(=O)C3CCOCC3)s2)cn1 [Compound 504]", "units text": "h", "half-life": 14.9}

----------
experiment: Safety and tolerability study, single-dose pharmacokinetics (Parts A, B, C); assay type: in vivo, human; conditions: male, human, plasma, oral, 5 mg, Part B, healthy elderly men, 5 mg, median; read-out: tmax

{"chemical structure": "Cc1ccc(C(=O)Nc2nc(-c3ccco3)c(C(=O)C3CCOCC3)s2)cn1", "Tmax, h": 1}

----------
assay: Safety and tolerability study, single-dose pharmacokinetics (Parts A, B, C); assay type: in vivo, human; settings: female, human, plasma, oral, 5 mg, Part B, healthy elderly women, 5 mg, arithmetic mean; read-out: Vz/F
endpoint label: Vd/F (L)

{"chemical structure": "Cc1ccc(C(=O)Nc2nc(-c3ccco3)c(C(=O)C3CCOCC3)s2)cn1", "endpoint label": "Vd/F", "units text": "L", "value measured": 13.6}

----------
assay: Safety and tolerability study, single-dose pharmacokinetics (Parts A, B, C); assay type: in vivo, human; details: female, human, plasma, oral, 5 mg, Part B, healthy elderly women, 5 mg, arithmetic mean; read-out: t1/2 (converted)

{"chemical structure": "Cc1ccc(C(=O)Nc2nc(-c3ccco3)c(C(=O)C3CCOCC3)s2)cn1", "half-life (h)": 17.4}

----------
Molecular target: A1 receptor (Mus musculus, UniProt Q60612)
Sequence (Q60612 1-326): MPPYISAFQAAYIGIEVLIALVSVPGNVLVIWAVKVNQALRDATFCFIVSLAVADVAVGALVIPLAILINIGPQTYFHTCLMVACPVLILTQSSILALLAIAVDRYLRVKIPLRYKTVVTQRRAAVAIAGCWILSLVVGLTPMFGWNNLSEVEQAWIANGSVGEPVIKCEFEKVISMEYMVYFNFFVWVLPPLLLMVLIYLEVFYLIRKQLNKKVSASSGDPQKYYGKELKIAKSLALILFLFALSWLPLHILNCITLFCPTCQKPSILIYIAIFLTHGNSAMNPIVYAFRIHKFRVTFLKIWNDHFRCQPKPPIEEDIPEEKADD
endpoint label: Ki (nM)

{"chemical structure": "Cc1ccc(C(=O)Nc2nc(-c3ccco3)c(C(=O)C3CCOCC3)s2)cn1", "value measured": 31.1}
